Listing of recorded IC50 by entry.
biological target: MALT1 protease (Homo sapiens); settings: Cell (Glo), GloSensor reporter, PMA/IO activated Raji cells
Sequence (Q9UDY8 whole entry): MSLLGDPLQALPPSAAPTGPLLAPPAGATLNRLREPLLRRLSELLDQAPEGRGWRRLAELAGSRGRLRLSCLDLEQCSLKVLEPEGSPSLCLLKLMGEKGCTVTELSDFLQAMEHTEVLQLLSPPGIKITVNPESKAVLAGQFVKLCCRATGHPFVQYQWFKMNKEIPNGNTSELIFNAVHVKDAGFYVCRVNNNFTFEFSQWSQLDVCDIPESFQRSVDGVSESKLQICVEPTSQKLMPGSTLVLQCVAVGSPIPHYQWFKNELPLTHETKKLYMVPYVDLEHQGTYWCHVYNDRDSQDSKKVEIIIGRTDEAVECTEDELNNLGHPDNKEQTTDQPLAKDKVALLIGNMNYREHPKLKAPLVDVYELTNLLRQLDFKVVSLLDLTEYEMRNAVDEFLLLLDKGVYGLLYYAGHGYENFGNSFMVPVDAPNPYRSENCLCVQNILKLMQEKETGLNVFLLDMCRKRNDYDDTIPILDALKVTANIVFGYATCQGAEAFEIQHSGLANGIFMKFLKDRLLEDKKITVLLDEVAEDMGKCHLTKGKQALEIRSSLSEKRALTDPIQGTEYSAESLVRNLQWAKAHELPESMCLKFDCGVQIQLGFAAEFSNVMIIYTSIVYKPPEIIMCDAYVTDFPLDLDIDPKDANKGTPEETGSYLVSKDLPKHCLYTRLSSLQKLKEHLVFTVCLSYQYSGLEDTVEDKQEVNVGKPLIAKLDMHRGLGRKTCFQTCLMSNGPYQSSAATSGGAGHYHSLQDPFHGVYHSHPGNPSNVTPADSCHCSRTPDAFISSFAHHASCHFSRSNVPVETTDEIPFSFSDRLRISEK
Square brackets hold non-standard residues; d marks the D form. Peptide text beside a SMILES is read from it. * marks the point of attachment. Hyp = O=C(O)[C@@H]1C[C@@H](O)CN1; NMeV = CN[C@H](C(=O)O)C(C)C; Ac6c = NC1(C(=O)O)CCCCC1; Cbz = O=C(OCc1ccccc1)*; Bz = O=C(c1ccccc1)*; CH2F = FC*

MALT1 protease (Homo sapiens) / IC50 / N=C(N)NCCC[C@H](NC(=O)[C@@H]1C[C@@H](O)CN1C(=O)[C@@H](NC(=O)c1ccc(Br)cc1)C1CCCCC1)C(=O)CF [Compound 53] : value? 65 nM

Follow-up item: CC(C)[C@H](NC(=O)c1ccc(Br)cc1)C(=O)N1CC[C@H]1C(=O)N[C@@H](CCCNC(=N)N)C(=O)CF [Compound 47] 219 nM

Follow-up item: CC(C)[C@H](NC(=O)OCc1ccccc1)C(=O)N1C[C@H](O)C[C@H]1C(=O)N[C@@H](CCCNC(=N)N)C(=O)CF [Compound 41] (Cbz-Val-[Hyp]-Arg-CH2F) 209 nM

Follow-up item: N=C(N)NCCC[C@H](NC(=O)[C@@H]1CCCN1C(=O)C1(NC(=O)OCc2ccccc2)CCCCC1)C(=O)CF [Compound 37] (Cbz-[Ac6c]-Pro-Arg-CH2F) 6000 nM

Follow-up item: CC(C)[C@H](NC(=O)c1ccc(Cl)cc1)C(=O)N1CCC[C@H]1C(=O)N[C@@H](CCCNC(=N)N)C(=O)CF [Compound 23] 180 nM

Follow-up item: COc1ccc(C(=O)N[C@H](C(=O)N2CCC[C@H]2C(=O)N[C@@H](CCCNC(=N)N)C(=O)CF)C(C)C)cc1 [Compound 26] 800 nM

Follow-up item: CC(C)[C@H](NC(=O)c1ccc(Br)cc1)C(=O)N1CCOC[C@H]1C(=O)N[C@@H](CCCNC(=N)N)C(=O)CF [Compound 49] 174 nM

Follow-up item: CC(C)[C@H](NC(=O)c1ccccc1)C(=O)N1CCC[C@H]1C(=O)N[C@@H](CCCNC(=N)N)C(=O)CF [Compound 19] (Bz-Val-Pro-Arg-CH2F) 640 nM

Follow-up item: CN[C@H](C(=O)N1CCC[C@H]1C(=O)N[C@@H](CCCNC(=N)N)C(=O)CF)C(C)C [Compound 3] (H-[NMeV]-Pro-Arg-CH2F) > 20000 nM
